# Test System: human 17β-HSD2 (Homo sapiens, UniProt P37059)
# Construct: expressed in transfected cells; host or cells: HEK-293 (ATCC), used as cell lysate
# Sequence (P37059 whole entry): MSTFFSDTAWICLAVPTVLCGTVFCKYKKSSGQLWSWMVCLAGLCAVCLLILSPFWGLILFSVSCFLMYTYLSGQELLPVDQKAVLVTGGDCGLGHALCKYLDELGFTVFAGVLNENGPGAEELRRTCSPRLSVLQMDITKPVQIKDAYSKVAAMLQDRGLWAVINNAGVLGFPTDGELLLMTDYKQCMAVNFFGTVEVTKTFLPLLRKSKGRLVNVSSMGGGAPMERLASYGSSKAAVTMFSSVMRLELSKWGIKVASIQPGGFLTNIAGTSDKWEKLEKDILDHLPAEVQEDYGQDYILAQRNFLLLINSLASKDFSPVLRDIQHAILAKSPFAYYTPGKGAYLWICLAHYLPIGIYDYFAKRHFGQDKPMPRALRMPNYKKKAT
# Method Notes: 17β-HSD2 activity assay using lysates of HEK-293 cells expressing the recombinant human enzyme;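 note: conversion of tritium-labelled estradiol (200 nM, with 500 µM NAD+, 10 min) quantified after TLC separation by scintillation counting, at least three independent measurements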
# Assay type: biochemical
# Measurement Context: 20 μM compound; % of vehicle control; read-out: 17β-HSD2 remaining activity at 20 μM (% of control)
Readout: remaining activity at 20 µM (%)

INSERT INTO assay_data (compound, readout, unit_of_measure, recorded_number) VALUES
  ('COCCNC(=O)Cc1ccc(O)c(Cl)c1', 'remaining activity at 20 µM', '%', 37),
  ('O=C(O)/C=C/c1ccc(O)c(O)c1', 'remaining activity at 20 µM', '%', 58),
  ('NC(=O)Cc1ccc(O)c(Cl)c1 [S11, 2-(3-chloro-4-hydroxyphenyl)acetamide]', 'remaining activity at 20 µM', '%', 80),
  ('NC(=O)c1cccnc1 [S7, nicotinamide]', 'remaining activity at 20 µM', '%', 106);

I. O=C(/C=C/c1ccc(O)c(O)c1)O[C@@H]1C[C@](O)(C(=O)O)C[C@@H](O)[C@H]1O
II. CCOC(=O)c1cc(O)c(O)c(O)c1 [S1, ethyl gallate]
III. CCCCNC(=O)Cc1ccc(O)c(Cl)c1
Form: Sort by [remaining activity at 20 µM] Order [ ascending ] Reply with the item labels sorted in the order that was asked for. III, II, I

a. O=C(O)Cc1ccc(O)cc1 [S15, 2-(4-hydroxyphenyl)acetic acid]
b. CCCCOC(=O)c1cc(O)c(O)c(O)c1 [S3, butyl gallate]
remaining activity at 20 µM comparison. Which is larger, a or b ? Please identify the chosen entry by its label. a

Reference source: paper PMC5411959
